test system: HCC-366; test: relative viability (nuclei count vs DMSO), 5 days (fraction); higher = more cells survive; conditions: first compound 8 µM
MEASURE_NAME: relative viability
Lab note: write the figure by itself, no unit.

Check out these entries, answers already filled in.
{"columns": ["COMPOUND", "MEASURE_NAME", "TEST_VALUE"],
 "data": [
  ["CCCCCCCCCCCC1=C(O)C(=O)C=C(O)C1=O [Embelin] + COc1cccc2cc(-c3nc([C@H]4CC[C@H](C(=O)O)CC4)n4ncnc(N)c34)[nH]c12 [OSI-027] (partner 0.5 µM)", "relative viability", 0.905],
  ["CCCCCCCCCCCC1=C(O)C(=O)C=C(O)C1=O [Embelin] + O=C(CCCCCCC(=O)Nc1ccccc1)NO [Vorinostat] (partner 1 µM)", "relative viability", 0.268],
  ["CCCCCCCCCCCC1=C(O)C(=O)C=C(O)C1=O [Embelin] + CC(C)C[C@H](NC(=O)[C@H](Cc1ccccc1)NC(=O)c1cnccn1)B(O)O [Bortezomib] (partner 0.002 µM)", "relative viability", 1.1],
  ["CCCCCCCCCCCC1=C(O)C(=O)C=C(O)C1=O [Embelin] + O=C(c1cc(Cc2n[nH]c(=O)c3ccccc23)ccc1F)N1CCN(C(=O)C2CC2)CC1 [Olaparib] (partner 8 µM)", "relative viability", 0.423]
]}

I am curious: what relative viability value has been reported for CCCCCCCCCCCC1=C(O)C(=O)C=C(O)C1=O [Embelin] + Cc1cc(Nc2cc(N3CCN(C)CC3)nc(Sc3ccc(NC(=O)C4CC4)cc3)n2)n[nH]1 [Tozasertib] (partner 0.1 µM) ? 0.113

Entry to check: CCCCCCCCCCCC1=C(O)C(=O)C=C(O)C1=O [Embelin] + C[C@]1(O)C[C@@H](c2nc(-c3ccc4ccc(-c5ccccc5)nc4c3)c3c(N)nccn32)C1 [Linsitinib] (partner 1 µM) 0.49

Same question for CCCCCCCCCCCC1=C(O)C(=O)C=C(O)C1=O [Embelin] + Cc1nc(NC(=O)N2CCC[C@H]2C(N)=O)sc1-c1ccnc(C(C)(C)C(F)(F)F)c1 [Alpelisib] (partner 2 µM) please. 0.427
